Target: canine TRPM8 (Canis lupus familiaris)
Construct: expressed in transfected cells
Sequence (Q1A7N1 1-1104): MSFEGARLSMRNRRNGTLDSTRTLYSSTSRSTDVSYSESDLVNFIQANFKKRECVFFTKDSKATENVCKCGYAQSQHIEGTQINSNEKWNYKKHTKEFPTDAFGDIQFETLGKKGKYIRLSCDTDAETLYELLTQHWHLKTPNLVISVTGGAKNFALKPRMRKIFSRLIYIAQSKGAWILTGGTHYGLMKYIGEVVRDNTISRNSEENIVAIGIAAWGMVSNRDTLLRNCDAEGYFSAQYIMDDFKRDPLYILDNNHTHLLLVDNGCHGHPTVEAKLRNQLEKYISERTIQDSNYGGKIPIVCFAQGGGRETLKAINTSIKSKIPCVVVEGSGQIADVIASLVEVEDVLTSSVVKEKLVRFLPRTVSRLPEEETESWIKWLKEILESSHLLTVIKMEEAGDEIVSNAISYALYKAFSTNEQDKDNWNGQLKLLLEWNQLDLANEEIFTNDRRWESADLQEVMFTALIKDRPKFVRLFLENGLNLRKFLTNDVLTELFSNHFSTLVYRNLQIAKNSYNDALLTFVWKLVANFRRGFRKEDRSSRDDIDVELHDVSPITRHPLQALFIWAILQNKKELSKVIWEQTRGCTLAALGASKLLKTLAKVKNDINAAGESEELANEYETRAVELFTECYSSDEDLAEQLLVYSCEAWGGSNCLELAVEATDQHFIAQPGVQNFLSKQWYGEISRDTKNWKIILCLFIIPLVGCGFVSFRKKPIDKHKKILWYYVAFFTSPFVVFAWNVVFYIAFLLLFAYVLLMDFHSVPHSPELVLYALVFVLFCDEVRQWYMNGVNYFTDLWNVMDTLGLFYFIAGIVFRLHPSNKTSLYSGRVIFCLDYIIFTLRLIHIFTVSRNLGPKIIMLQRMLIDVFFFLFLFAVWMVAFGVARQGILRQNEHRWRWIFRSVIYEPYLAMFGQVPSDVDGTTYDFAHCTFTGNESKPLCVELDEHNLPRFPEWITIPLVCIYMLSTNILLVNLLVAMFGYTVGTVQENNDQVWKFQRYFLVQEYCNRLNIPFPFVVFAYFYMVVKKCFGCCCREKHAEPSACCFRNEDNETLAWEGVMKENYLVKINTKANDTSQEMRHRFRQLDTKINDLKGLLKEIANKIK
Experiment: In vitro canine TRPM8 functional assay (icilin-induced intracellular Ca2+ increase, FLIPR/FDSS)
Type: cell-based
Settings: 1 μM compound; re-test; samples diluted from 10 mM stock with 100% DMSO; Table 7
From the text: The functional activity of representative compounds of the formula (I) of the present invention was quantified by measuring changes in intracellular calcium concentration using a Ca^2+-sensitive fluorescent dye. The changes in fluorescent signal were monitored by a fluorescence plate reader, either a FLIPR™ (Molecular Devices) or FDSS (Hamamatsu). […]
Label key: satisfied means % Inh @ 1 μM under 60%; not satisfied means % Inh @ 1 μM of 60% or more.

• Cn1c(=NS(=O)(=O)c2ccccc2)n(Cc2ccc(C(F)(F)F)c(F)c2)c2cc(F)ccc21 [Compound 41] = not satisfied
• Cn1c(=NS(=O)(=O)c2ccccc2)n(Cc2ccc(OC(F)(F)F)cc2)c2cc(F)ccc21 [Compound 46] = satisfied
• Cn1c(=NS(=O)(=O)c2ccccc2)n(Cc2ccc(C(F)(F)F)cc2)c2cc(F)ccc21 [Compound 38] = satisfied
• Cc1ccc2c(c1)n(C)c(=NS(=O)(=O)c1ccccc1)n2Cc1ccc(OC(F)(F)F)cc1 [Compound 54] = satisfied
• Cn1c(=NS(=O)(=O)c2ccc(F)cc2)n(Cc2ccc(C(F)(F)F)cc2)c2ccccc21 [Compound 16] = satisfied
• Cn1c(=NS(=O)(=O)c2ccccc2)n(Cc2ccccc2)c2ccccc21 [Compound 3] = satisfied
• Cn1c(=NS(=O)(=O)c2ccc(F)cc2)n(Cc2ccc(C(F)(F)F)c(F)c2)c2ccccc21 [Compound 24] = not satisfied
